# Tested on: DNA
# run_description: Site and sequence selective DNA alkylation by polyacrylamide gel electrophoresis (PAGE)
# Type: biochemical
# conditions_used: site TATA
reported_endpoint: Alkylation Intensity at TATA
Please give the numeric answer without any surrounding text.

Example compounds with recorded Alkylation Intensity at TATA:
compound: Cc1c[nH]c2c1C13CC1CN(C(=O)CCc1cccn1C)C3=CC2=O (stereo not shown) [YW-033]
Alkylation Intensity at TATA: 1.40

compound: COc1c(O)c2c(c3cc(C(=O)N4CCc5c4c(O)c(OC)c4[nH]c(C(=O)N6CC7CC78C6=CC(=O)c6[nH]cc(C)c68)cc54)[nH]c13)CCN2C(N)=O (stereo not shown) [CC-1065, reference compound]
Alkylation Intensity at TATA: 1.02

Consider the additional compound presented here.
Name the recorded Alkylation Intensity at TATA for Cc1c[nH]c2c1C13CC1CN(C(=O)c1cccn1C)C3=CC2=O (stereo not shown) [YW-032] .
1.05

---

# System: DNA
# run_description: Site and sequence selective DNA alkylation by polyacrylamide gel electrophoresis (PAGE)
# Assay type: biochemical
# conditions_used: site TTTA
reported_endpoint: Alkylation Intensity at TTTA

Example compounds with recorded Alkylation Intensity at TTTA:
compound: Cc1c[nH]c2c1C13CC1CN(C(=O)c1cccn1C)C3=CC2=O (stereo not shown) [YW-032]
Alkylation Intensity at TTTA: .63

compound: Cc1c[nH]c2c1C13CC1CN(C(=O)CCc1cccn1C)C3=CC2=O (stereo not shown) [YW-033]
Alkylation Intensity at TTTA: .97

compound: COc1c(O)c2c(c3cc(C(=O)N4CCc5c4c(O)c(OC)c4[nH]c(C(=O)N6CC7CC78C6=CC(=O)c6[nH]cc(C)c68)cc54)[nH]c13)CCN2C(N)=O (stereo not shown) [CC-1065, reference compound]
Alkylation Intensity at TTTA: 1.09

Consider the additional compound presented here.
Name the recorded Alkylation Intensity at TTTA for Cc1c[nH]c2c1C13CC1CN(C(=O)C=Cc1cccn1C)C3=CC2=O (stereo not shown) [YW-034] .
.49
